# Measured on: T1, recombinant human NKG2D-Fc (human, UniProt P26718 73-216)
# T1 construct: extracellular domain; also called human NKG2D-Fc fusion protein; NKG2D-Fc-biotin; not shown: human IgG1 Fc domain
# T1 sequence (looked up): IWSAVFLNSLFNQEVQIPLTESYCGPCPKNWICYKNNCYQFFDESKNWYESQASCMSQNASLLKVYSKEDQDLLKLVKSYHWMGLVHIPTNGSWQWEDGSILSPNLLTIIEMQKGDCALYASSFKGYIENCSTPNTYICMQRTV
# Protocol description: ELISA, NKG2D-Fc coated

- Binder: "ADI-29405 (antibody, V domains shown) VH: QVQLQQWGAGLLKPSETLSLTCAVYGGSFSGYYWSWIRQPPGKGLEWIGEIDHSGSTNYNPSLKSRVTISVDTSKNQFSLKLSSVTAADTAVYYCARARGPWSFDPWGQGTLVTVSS VL: DIQMTQSPSTLSASVGDRVTITCRASQSISSWLAWYQQKPGKAPKLLIYKASSLESGVPSRFSGSGSGTEFTLTISSLQPDDFATYYCQQYGSFPTFGGGTKVEIK"
  binding result: "binds"
- Binder: "ADI-27749 (antibody, V domains shown, also called A49) VH: EVQLVESGGGLVKPGGSLRLSCAASGFTFSSYSMNWVRQAPGKGLEWVSSISSSSSYIYYADSVKGRFTISRDNAKNSLYLQMNSLRAEDTAVYYCARGAPMGAAAGWFDPWGQGTLVTVSS VL: DIQMTQSPSSVSASVGDRVTITCRASQGISSWLAWYQQKPGKAPKLLIYAASSLQSGVPSRFSGSGSGTDFTLTISSLQPEDFATYYCQQGVSFPRTFGGGTKVEIK"
  binding result: "binds"
- Binder: "ADI-27740 (antibody, V domains shown, also called A40) VH: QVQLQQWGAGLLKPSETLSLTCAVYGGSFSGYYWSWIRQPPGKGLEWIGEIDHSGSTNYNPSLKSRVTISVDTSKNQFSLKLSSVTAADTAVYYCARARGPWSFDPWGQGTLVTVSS VL: DIQMTQSPSTLSASVGDRVTITCRASQSIGSWLAWYQQKPGKAPKLLIYKASSLESGVPSRFSGSGSGTEFTLTISSLQPDDFATYYCQQYHSFYTFGGGTKVEIK"
  binding result: "binds"
